// provenance: a melting point compilation (Tetko et al.; mined from patent text by program, amines drawn as free bases though some values may be those of a salt)

Quick reference: melting point of the listed items.

Requested read-out: melting point. Entry: O=S(=O)(c1ccccc1)c1nccc2c1CCCC2
109 to 112 °C

Requested read-out: melting point. Entry: CCCCCS(=O)(=O)NC(=O)CCc1ccc(OCCOC)cc1OCc1nc(-c2ccccc2)oc1C
95.9 to 96.7 °C

More entries:
Requested read-out: melting point. Entry: CCCCCCCCOc1ccc(-c2ncc(O)cc2Cl)cc1
128 to 130 °C

Requested read-out: melting point. Entry: CN(C)C(=O)Nc1ccc2c(c1)C(c1ccccc1F)=NCC(=O)N2C
97 °C

Requested read-out: melting point. Entry: O=C1NCC(Cc2ccc(Oc3ccccc3)cc2)O1 (stereo not given)
118 to 119 °C

Requested read-out: melting point. Entry: CCCCc1cc(C(O)=S)cc(N)c1Cc1ccccc1
136 to 138 °C

Requested read-out: melting point. Entry: CON=C(C(=O)O)c1nc(NC=O)ccc1Cl
151 to 154 °C

====

Quick reference: melting point of the listed items.

Requested read-out: melting point. Entry: Cc1cc(C)cc(NC(=O)Cc2ccc(OC3(C(=O)O)CCCC3C)cc2)c1 (stereo not given)
184 to 186 °C

Requested read-out: melting point. Entry: Cc1cc(C2OCCO2)ncc1[N+](=O)[O-]
77 to 79 °C

Requested read-out: melting point. Entry: CN1CCN(CC(=O)Nc2cccc3c2C(=O)c2c-3n[nH]c2-c2ccc(N3CCOCC3)cc2)CC1
258 °C

Requested read-out: melting point. Entry: COCCc1nc(Cl)c(CO)[nH]1
91 to 95 °C

Requested read-out: melting point. Entry: N#Cc1ccc(CCCN2C(=O)c3ccccc3C2=O)cc1
138 to 140 °C

Requested read-out: melting point. Entry: O=C(NC1CCN(Cc2ccccc2)CC1)c1c[nH]c2ccc(F)cc12
215 to 217 °C

Requested read-out: melting point. Entry: Cn1c(COc2ccc(CC3SC(=O)NC3=O)cc2)nc2ccc(OCCc3ccc(NC(=O)Nc4ccc(Cl)cc4)cc3)cc21 (stereo not given)
157 to 162 °C

Requested read-out: melting point. Entry: O=C(CNc1ccc2[nH]c(=O)[nH]c2c1)N1CCC(Cc2ccc(F)cc2)CC1
85 to 87 °C

More entries:
Requested read-out: melting point. Entry: CN1C(=O)CN=C(c2ccccc2)c2ccccc21
151 to 154 °C

Requested read-out: melting point. Entry: CNC(=O)c1cc(F)c(Cl)cc1F
128 °C

====

Quick reference: melting point of the listed items.

Worked cases, melting point given:
Requested read-out: melting point. Entry: CCc1nc(NC(=O)C2=C(O)c3ccc4ccccc4c3S(=O)(=O)N2)sc1C
268 to 270 °C

Requested read-out: melting point. Entry: O=C(O)c1cn(C2CC2)c2c(F)c(N3CCNC(CF)C3)c(F)c(F)c2c1=O (stereo not given)
219 to 220 °C

Requested read-out: melting point. Entry: O=C(NCC12CC3CC(CC(C3)C1)C2)c1cc(-c2ccccc2C(=O)O)ccc1Cl
228 to 230 °C

Requested read-out: melting point. Entry: O=c1[nH]ccc2c(OCc3ccccc3)cccc12
165 to 168 °C

Requested read-out: melting point. Entry: FC(F)(F)c1ccc2nc(-c3ccccc3)oc2n1
127 to 129 °C

Requested read-out: melting point. Entry: O=C(NO)c1ccc(CNC(=O)c2[nH]c(-c3cccs3)cc2-c2ccc(F)cc2)cc1
214 to 216 °C

More entries:
Requested read-out: melting point. Entry: COc1c2c(c(OC)c(OC)c1OC)CCC(CCO)CC2
64 to 66 °C

Requested read-out: melting point. Entry: O=C(NCCN1CC=C(n2c(=O)[nH]c3ccccc32)CC1)c1ccc(F)cc1
203 °C

Requested read-out: melting point. Entry: Cc1nc(N2CCN(Cc3ccccc3)C2=N)sc1C(=O)NCc1ccc(F)c(F)c1
140 to 142 °C
